- target of assay: MRGPRX4 (Homo sapiens)
- Sequence (Q96LA9 whole entry): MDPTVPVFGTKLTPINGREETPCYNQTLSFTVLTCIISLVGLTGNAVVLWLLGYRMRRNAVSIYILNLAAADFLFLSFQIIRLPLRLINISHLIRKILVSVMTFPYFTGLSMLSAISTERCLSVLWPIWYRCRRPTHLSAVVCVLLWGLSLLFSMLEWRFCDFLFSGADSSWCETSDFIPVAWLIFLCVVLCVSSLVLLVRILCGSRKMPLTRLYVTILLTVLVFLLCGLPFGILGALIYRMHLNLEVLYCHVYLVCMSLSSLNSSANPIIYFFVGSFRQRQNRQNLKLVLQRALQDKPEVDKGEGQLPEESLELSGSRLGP
- assay protocol: MRGPRX4 activation, Fluo-8 Ca2+ FLIPR assay in HEK293T cells stably expressing MRGPRX4
- Format: cell-based
- Design: key: fluorescence change dF/F0
- condition description: E3-9, Conc. (Log[M]) −4.5
Overview of reported MRGPRX4 activation, Average across a group of compounds:
assay endpoint: MRGPRX4 activation, Average

compound: CC[C@H]1[C@@H](O)[C@@H]2[C@H](CC[C@]3(C)[C@@H]([C@H](C)CCN=C=S)CC[C@@H]23)[C@@]2(C)CCCC[C@@H]12
recorded value: 0.018

compound: [2H]C1([2H])CC[C@@]2(C)[C@@H](C1)[C@@H](CC)[C@@H](O)[C@@H]1[C@@H]2CC[C@]2(C)[C@@H]([C@H](C)CCNC(=S)NS(=O)(=O)c3cccs3)CC[C@@H]12
recorded value: 0.020

compound: CC[C@H]1[C@@H](O)[C@@H]2[C@H](CC[C@]3(C)[C@@H]([C@H](C)CCNS(=O)(=O)C4CC4)CC[C@@H]23)[C@@]2(C)CCCC[C@@H]12
recorded value: 0.020
